assay_procedure: NFAT Signaling Pathway (AID 444);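 further: carbachol stimulus at about its EC50 of 1 µM final; on the % scale 0 is the no-effect control and ±100 the full control effect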
assay_conditions: Jurkat NFAT-bla M1, carbachol, beta-lactamase ratio, 5 h; at 38 µM (top of the series) unless noted
Records with an inconclusive call do not appear.
measure_name: activity change, negative = inhibition (%)
Write down the numeric answer in % and omit the unit.

Request the reported activity change, negative = inhibition associated with NC(=O)CNCCC(c1ccccc1)c1ccccc1 1.39

# lookup: activity change, negative = inhibition of NC(=O)c1ccccc1 20.6

Quick one: activity change, negative = inhibition for O=c1oc(Cl)c(Cl)c2ccccc12 ? -53.3

I am curious: what activity change, negative = inhibition value has been reported for CCCc1c(OCCCOc2ccc(OCC(=O)O)cc2)ccc(C(C)=O)c1O ? -26.4

Report activity change, negative = inhibition for CC(=O)NNC(=O)N1Cc2ccccc2Oc2ccc(Cl)cc21 please. 13.5

# lookup: activity change, negative = inhibition of NC(N)=[N+]1CCc2ccccc2C1 1.51

I have this compound here, C[C@H](O)C(=O)C1=Nc2c(nc(N)[nH]c2=O)NC1 , and I need its recorded activity change, negative = inhibition. -2.7

====

target_under_test: Glutaminase kidney isoform, mitochondrial (Homo sapiens)
assay_procedure: qHTS for Inhibitors of Glutaminase (GLS): LOPAC Validation (AID 624146); further: nearly all actives have a fitted effect of over 60% in size
assay_conditions: glutaminase enzyme activity inhibition; series mostly up to 46.1 µM
Inconclusive results are not listed. Activity calls are given as the source filed them. Calls follow the shape of the dose curve; as a rule, active = well fitted inhibition curve with a large enough effect; inconclusive = small, poorly fitted or top-dose-only effect; inactive = no such curve, though single readings can be large or run the other way.
Choose the fitting class; nothing outside active, inactive is accepted.

What did this assay record as the result for Clc1nccc2c1ccc1ccccc12 ? inactive

For COc1cc(CC(=O)O)ccc1O , which call appears in the assay record? active

In this assay, the call recorded for Fc1ccc(CN(C2=NCCN2)c2c(Cl)cccc2Cl)cc1 was what? inactive

What call does the record list for S=C(S)N1CCCC1 ? active

Fill in: this test's call for N[C@H](C(=O)O)[C@H](Cc1ccccc1)C(=O)O is ___ inactive

Outcome logged for O=c1onc2cnc3ccccc3n12 in this assay: active

For this compound, state the assay outcome: CN1CCN(c2nc3cc(C(F)(F)F)ccc3n3cccc23)CC1 inactive

Per the assay record, what outcome was assigned to CC(C)(C)c1cc(/C=C(\C#N)C(N)=S)cc(C(C)(C)C)c1O ? active

Hi, sorry to bother you, what did the test record for CCCC[C@@]1(C2CCCC2)Cc2cc(OCC(=O)O)c(Cl)c(Cl)c2C1=O ? inactive

Short answer needed: outcome of this test for N=C(N)SCCN ? inactive

// param item: C[C@]12C=CC(=O)C=C1CC[C@@H]1C2=CC[C@]2(C)[C@@H](C(=O)CN3CCN(c4cc(N5CCCC5)nc(N5CCCC5)n4)CC3)CC[C@@H]12 ; yields the recorded call inactive

Look up the recorded call for Nc1ncnc2c1nc(Br)n2C1OC2COP(=O)(O)O[C@@H]2C1O (stereo partly drawn) in this test. inactive

# lookup: test call for C[C@@]1(C2CCCC2)Cc2cc(OCC(=O)O)c(Cl)c(Cl)c2C1=O inactive

Hi team, can someone confirm the assay call for CC[N+](CC)(CC)CC(=O)Nc1c(C)cccc1C ? inactive

Name the outcome recorded for CN1CCC2(CCN3CCc4c(oc5ccccc45)C3C2)N(C)C1=O (stereo not drawn) in the assay. inactive

What did the test return for N[C@@H](Cc1ccc(O)c(I)c1)C(=O)O ? inactive

GET /call?item= COc1cccc(OC)c1OCCNCC1CSc2ccccc2O1 (stereo not drawn) returns the recorded outcome of this test. inactive

Which result was noted for this compound in the test: CCCc1c(OCCCOc2ccc(OCC(=O)O)cc2)ccc(C(C)=O)c1O inactive

How was CCCCOC(=O)NS(=O)(=O)c1sc(CC(C)C)cc1-c1ccc(Cn2c(CC)nc3c(C)cc(C)nc32)cc1 classified in this test? inactive

Which outcome was assigned to CCN(CC)CCCCCCCCOC(=O)c1cc(OC)c(OC)c(OC)c1 in this test? inactive

Lab log entry: CCCCCCCCCCCCCCCCCCOC[C@H](COP(=O)([O-])OCC[N+](C)(C)C)OC — outcome as called in the assay? inactive

Hey, what did the test say about O=C(N[C@@H](Cc1ccccc1)C(=O)CCl)OCc1ccccc1 ? inactive

Recorded test outcome, item COc1ccc2c(c1)c(CC(=O)O)c(C)n2C(=O)c1ccccc1 inactive

What classification did COc1ccccc1N1CCN(CCCCNC(=O)c2ccc3ccccc3c2)CC1 end up with in this test? inactive

Could you check what this test reported for COc1ccc(CCN(C)CCc2ccc(OC)c(OC)c2)cc1OC ? inactive

Hi, sorry to bother you, what did the test record for CC(N)=O ? inactive

Hi team, can someone confirm the assay call for COc1cc2c(CCNC(C)=O)c[nH]c2cc1O ? active

What did this assay record as the result for O=C(O)CCC(=O)N1CCCC1C(=O)O (stereo not drawn) ? inactive

# lookup: test call for O=C(O)CCC/C=C\C[C@@H]1[C@@H](/C=C/[C@H](O)C2Cc3ccccc3C2)[C@@H](F)C[C@@H]1O inactive

I would be grateful if you could indicate the recorded call for Nc1ncnc2c1ncn2C1CCCO1 (stereo not drawn) . inactive

I would be grateful if you could indicate the recorded call for CC(C)(C)c1ccc(/C=C/C(=O)Nc2ccc3c(c2)OCCO3)cc1 . inactive

# outcome recorded in this test, key = CCC(=O)N1CCN(C(=O)c2ccccc2)CC1 inactive

Any idea what this test logged for CCCCCCCCCC[Si](C)(C)CCC(=O)NC(Cc1ccc(C)cc1)c1ccccc1 (stereo not drawn) ? inactive

Hi, do you know how COc1cc(C(O)CO)ccc1O (stereo not drawn) came out in this test? active

Short answer needed: outcome of this test for CC(C)(CO)Cc1cc(C(C)(C)C)c(O)c(C(C)(C)C)c1 ? active

Which outcome was assigned to NCC(O)C1CCCCCCC1 (stereo not drawn) in this test? inactive

Answer briefly: the call reported for N=C(N)c1ccc(N)cc1 in this assay. inactive

Called result for Cc1cccc(C(=O)NCN2CCN(c3ccccc3C#N)CC2)c1 inactive

Recorded call for Cc1nc(N=Nc2ccc(C(=O)O)cc2)c(COP(=O)(O)O)c(C=O)c1O ? inactive

For O=[N+]([O-])c1cccc2cn[nH]c12 , what call appears in the results of this test? inactive

Given O=C(c1ccc2c(c1)OCCO2)N1CCCCC1 , state the outcome it received in this test. inactive

What classification did O=c1[nH]c2cc(Cl)ccc2c(O)c1-c1ccc(Oc2ccccc2)cc1 end up with in this test? inactive

Please let me know the test result on file for CC(C)NC[C@H](O)COc1ccc(CC(N)=O)cc1 . inactive

# outcome recorded in this test, key = O=C(O)Cc1c[nH]c2ccc(O)cc12 active

Per the records of this test, what outcome belongs to O=c1cc(-c2ccccc2)[nH]c2nc(Cl)ccc12 ? inactive

// param item: CSc1nc(N)c2ncn([C@@H]3O[C@H](COP(=O)(O)OP(=O)(O)O)C(O)[C@H]3O)c2n1 (stereo partly drawn) ; yields the recorded call inactive

Returns: the outcome recorded for NCCS(=O)O in this assay. inactive

Hi team, can someone confirm the assay call for CC(=O)[C@H]1CCC2C3CC=C4C[C@@H](OS(=O)(=O)O)CC[C@]4(C)C3CC[C@@]21C (stereo partly drawn) ? inactive
